Would you kindly list combination Emax for each of these compounds?
# Tested on: MN-60 (B-Lymphoblastic Leukemia)
# EXPERIMENT DESCRIPTION: combination Emax (second highest fraction inhibited in the dose matrix, 72 h); higher = more inhibition; extreme values may be limits of the assay
Answers are plain numbers.

- COMPOUND: "CCN(CCO)CCCOc1ccc2c(Nc3cc(CC(=O)Nc4cccc(F)c4)[nH]n3)ncnc2c1 [AZD2811] + C=CCn1c(=O)c2cnc(Nc3ccc(N4CCN(C)CC4)cc3)nc2n1-c1cccc(C(C)(C)O)n1 [AZD1775] (first compound max 1 µM, partner max 1 µM)"
  TEST TARGET: "MN-60 (B-Lymphoblastic Leukemia)"
  PROPERTY MEASURED: "combination Emax"
  OBSERVED VALUE: 0.291
- COMPOUND: "Cn1cnc2c(F)c(Nc3ccc(Br)cc3Cl)c(C(=O)NOCCO)cc21 [Selumetinib] + CCN(CCO)CCCOc1ccc2c(Nc3cc(CC(=O)Nc4cccc(F)c4)[nH]n3)ncnc2c1 [AZD2811] (first compound max 10 µM, 7x7, partner max 1 µM)"
  TEST TARGET: "MN-60 (B-Lymphoblastic Leukemia)"
  PROPERTY MEASURED: "combination Emax"
  OBSERVED VALUE: 0.342
- COMPOUND: "CN(C)CCCOc1ccc(-c2ccc3ncc4c(c3c2)n(C2CCOCC2)c(=O)n4C)cn1 [AZD0156] + C=CCn1c(=O)c2cnc(Nc3ccc(N4CCN(C)CC4)cc3)nc2n1-c1cccc(C(C)(C)O)n1 [AZD1775] (first compound max 1 µM, partner max 1 µM)"
  TEST TARGET: "MN-60 (B-Lymphoblastic Leukemia)"
  PROPERTY MEASURED: "combination Emax"
  OBSERVED VALUE: 0.374

Next up:
The recorded combination Emax for entry COc1cc2ncnc(Nc3ccc(F)c(Cl)c3)c2cc1OCCCN1CCOCC1 [Gefitinib] + CC(C)n1c(=O)n(C)c2cnc3cc(F)c(-c4ccc(OCCCN5CCCCC5)nc4)cc3c21 [AZD1390] (first compound max 10 µM, 7x7, partner max 0.3 µM) equals 0.0314

----------
# Test system: HCC1187 (Breast Carcinoma)
# EXPERIMENT DESCRIPTION: combination Emax (second highest fraction inhibited in the dose matrix, 72 h); higher = more inhibition; extreme values may be limits of the assay
PROPERTY MEASURED: combination Emax

- COMPOUND: "COc1cccc(OCCCN)c1-c1cc(Nc2cnc(C#N)cn2)n[nH]1 [Prexasertib] + C[C@@H]1COCCN1C2=NC(=NC(=C2)C3(CC3)[S@](=N)(=O)C)C4=C5C=CNC5=NC=C4 [AZD6738] (first compound max 1 µM, 7x7, partner max 10 µM)"
  PROPERTY MEASURED: "combination Emax"
  OBSERVED VALUE: 0.614

Return reported combination Emax values for all items listed beneath this line.
1. Cc1c2c(nn1C)CSCc1cc(n(C)n1)CSc1cc(c3ccccc3c1)OCCCc1c(C(=O)O)n(C)c3c-2c(Cl)ccc13 [AZD5991] + C=CCn1c(=O)c2cnc(Nc3ccc(N4CCN(C)CC4)cc3)nc2n1-c1cccc(C(C)(C)O)n1 [AZD1775] (first compound max 1 µM, partner max 1 µM)
2. COc1nnc2ccc(N3CCC(c4ccc(OCCN5CCN(C)C(=O)[C@H]5C)cc4)CC3)nn12 [AZD5153] + C[C@@H]1COCCN1C2=NC(=NC(=C2)C3(CC3)[S@](=N)(=O)C)C4=C5C=CNC5=NC=C4 [AZD6738] (first compound max 1 µM, 7x7, partner max 10 µM)
3. CC1(C)CCC(CN2CCN(c3ccc(C(=O)NS(=O)(=O)c4ccc(NCC5CCOCC5)c([N+](=O)[O-])c4)c(Oc4cnc5[nH]ccc5c4)c3)CC2)=C(c2ccc(Cl)cc2)C1 [Venetoclax] + CN(C)CCCOc1ccc(-c2ccc3ncc4c(c3c2)n(C2CCOCC2)c(=O)n4C)cn1 [AZD0156] (first compound max 1 µM, 7x7, partner max 1 µM)
4. NC1(C(=O)N[C@@H](CCO)c2ccc(Cl)cc2)CCN(c2ncnc3[nH]ccc23)CC1 [Capivasertib] + CCN(CCO)CCCOc1ccc2c(Nc3cc(CC(=O)Nc4cccc(F)c4)[nH]n3)ncnc2c1 [AZD2811] (first compound max 10 µM, 7x7, partner max 1 µM)
5. Cc1c2c(nn1C)CSCc1cc(n(C)n1)CSc1cc(c3ccccc3c1)OCCCc1c(C(=O)O)n(C)c3c-2c(Cl)ccc13 [AZD5991] + Cn1cnc2c(F)c(Nc3ccc(Br)cc3Cl)c(C(=O)NOCCO)cc21 [Selumetinib] (first compound max 1 µM, 7x7, partner max 3 µM)

Response line:
1: 0.998; 2: 0.696; 3: 0.173; 4: 0.833; 5: 0.986

Return reported combination Emax values for all items listed beneath this line.
1. Cc1c2c(nn1C)CSCc1cc(n(C)n1)CSc1cc(c3ccccc3c1)OCCCc1c(C(=O)O)n(C)c3c-2c(Cl)ccc13 [AZD5991] + C[C@@H]1COCCN1C2=NC(=NC(=C2)C3(CC3)[S@](=N)(=O)C)C4=C5C=CNC5=NC=C4 [AZD6738] (first compound max 1 µM, 7x7, partner max 10 µM)
2. Cn1cnc2c(F)c(Nc3ccc(Br)cc3Cl)c(C(=O)NOCCO)cc21 [Selumetinib] + C=CCn1c(=O)c2cnc(Nc3ccc(N4CCN(C)CC4)cc3)nc2n1-c1cccc(C(C)(C)O)n1 [AZD1775] (first compound max 10 µM, partner max 1 µM)

Response line:
1: 1; 2: 0.682
